Biological target: Bifunctional 3'-5' exonuclease/ATP-dependent helicase WRN (Homo sapiens, UniProt Q14191)
Sequence (Q14191 whole entry, the tested form may be a part): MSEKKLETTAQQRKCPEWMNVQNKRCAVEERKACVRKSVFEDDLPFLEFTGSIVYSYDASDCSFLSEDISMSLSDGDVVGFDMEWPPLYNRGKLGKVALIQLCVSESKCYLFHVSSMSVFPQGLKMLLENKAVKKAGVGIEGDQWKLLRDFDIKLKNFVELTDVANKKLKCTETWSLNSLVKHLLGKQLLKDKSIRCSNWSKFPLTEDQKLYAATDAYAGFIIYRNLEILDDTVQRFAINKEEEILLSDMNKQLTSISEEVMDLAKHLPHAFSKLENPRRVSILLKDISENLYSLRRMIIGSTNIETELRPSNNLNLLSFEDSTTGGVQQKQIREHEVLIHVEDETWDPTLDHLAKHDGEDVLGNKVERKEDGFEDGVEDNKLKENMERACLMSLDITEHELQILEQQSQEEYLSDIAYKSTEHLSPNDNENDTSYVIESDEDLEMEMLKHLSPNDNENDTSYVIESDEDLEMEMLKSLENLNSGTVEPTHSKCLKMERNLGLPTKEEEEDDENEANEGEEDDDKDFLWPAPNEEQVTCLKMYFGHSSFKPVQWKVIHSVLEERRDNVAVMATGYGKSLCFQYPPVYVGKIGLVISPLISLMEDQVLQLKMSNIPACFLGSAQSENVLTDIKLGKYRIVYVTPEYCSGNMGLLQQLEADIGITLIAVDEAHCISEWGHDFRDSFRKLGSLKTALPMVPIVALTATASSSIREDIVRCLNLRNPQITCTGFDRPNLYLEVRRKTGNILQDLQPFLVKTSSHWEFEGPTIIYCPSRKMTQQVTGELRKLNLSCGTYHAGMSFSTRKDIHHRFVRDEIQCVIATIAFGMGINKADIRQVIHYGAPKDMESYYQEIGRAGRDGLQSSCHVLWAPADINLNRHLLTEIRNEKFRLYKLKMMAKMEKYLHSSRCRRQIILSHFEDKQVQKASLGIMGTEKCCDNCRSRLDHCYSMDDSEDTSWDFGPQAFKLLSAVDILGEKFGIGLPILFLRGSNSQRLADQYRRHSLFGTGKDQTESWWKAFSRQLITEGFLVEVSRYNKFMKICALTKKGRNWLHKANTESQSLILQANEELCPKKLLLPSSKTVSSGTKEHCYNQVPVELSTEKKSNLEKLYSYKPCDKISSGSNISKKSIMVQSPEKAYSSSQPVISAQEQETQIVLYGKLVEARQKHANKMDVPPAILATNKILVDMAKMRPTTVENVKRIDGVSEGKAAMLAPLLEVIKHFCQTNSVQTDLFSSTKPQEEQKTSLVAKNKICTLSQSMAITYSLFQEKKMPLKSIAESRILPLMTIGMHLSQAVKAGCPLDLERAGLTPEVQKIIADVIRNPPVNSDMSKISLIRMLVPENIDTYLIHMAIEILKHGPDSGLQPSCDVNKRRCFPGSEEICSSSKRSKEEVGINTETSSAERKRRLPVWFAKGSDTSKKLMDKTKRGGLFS
Test: Inhibition of N-terminal Hexa-histidine-tagged human recombinant WRN helicase domain (517 to 945 residues) extracted from Baculovirus infected Sf9 cells by fluorescence based analysis
readoutLabel: pIC50
Please keep in mind that pIC50 is minus log10 of the molar concentration; only the number is needed.

Any idea what pIC50 was measured for "CS(=O)(=O)CC[C@@H](NC(=O)c1cnc(C(F)(F)F)nc1Oc1ccccc1)C1CC1" ? 6.85

---

Assay: Inhibition of HSV-1 helicase DNA dependent ATPase activity assessed as reduction in helicase-primase complex
Parameters: species or system Human alphaherpesvirus 1
readoutLabel: IC50 (nM)
// return numeric value only (unit: nM, not printed)

So what's the measured IC50 for this one? "Cc1cccc(C)c1N(CC(=O)Nc1ccc(-c2ncon2)cc1)C(=O)C1CCS(=O)(=O)CC1" 78

---

Assay: Inhibition of Coxsackievirus B3 2C protein
readoutLabel: EC50 (µM)
Respond with the bare value in µM.

Find the recorded EC50 belonging to "CNCC[C@H](Oc1ccc(C(F)(F)F)cc1)c1ccccc1" and report it. 5

---

Target: SWI/SNF-related matrix-associated actin-dependent regulator of chromatin subfamily A member 2 (Homo sapiens, UniProt P51531)
Sequence (P51531 whole entry): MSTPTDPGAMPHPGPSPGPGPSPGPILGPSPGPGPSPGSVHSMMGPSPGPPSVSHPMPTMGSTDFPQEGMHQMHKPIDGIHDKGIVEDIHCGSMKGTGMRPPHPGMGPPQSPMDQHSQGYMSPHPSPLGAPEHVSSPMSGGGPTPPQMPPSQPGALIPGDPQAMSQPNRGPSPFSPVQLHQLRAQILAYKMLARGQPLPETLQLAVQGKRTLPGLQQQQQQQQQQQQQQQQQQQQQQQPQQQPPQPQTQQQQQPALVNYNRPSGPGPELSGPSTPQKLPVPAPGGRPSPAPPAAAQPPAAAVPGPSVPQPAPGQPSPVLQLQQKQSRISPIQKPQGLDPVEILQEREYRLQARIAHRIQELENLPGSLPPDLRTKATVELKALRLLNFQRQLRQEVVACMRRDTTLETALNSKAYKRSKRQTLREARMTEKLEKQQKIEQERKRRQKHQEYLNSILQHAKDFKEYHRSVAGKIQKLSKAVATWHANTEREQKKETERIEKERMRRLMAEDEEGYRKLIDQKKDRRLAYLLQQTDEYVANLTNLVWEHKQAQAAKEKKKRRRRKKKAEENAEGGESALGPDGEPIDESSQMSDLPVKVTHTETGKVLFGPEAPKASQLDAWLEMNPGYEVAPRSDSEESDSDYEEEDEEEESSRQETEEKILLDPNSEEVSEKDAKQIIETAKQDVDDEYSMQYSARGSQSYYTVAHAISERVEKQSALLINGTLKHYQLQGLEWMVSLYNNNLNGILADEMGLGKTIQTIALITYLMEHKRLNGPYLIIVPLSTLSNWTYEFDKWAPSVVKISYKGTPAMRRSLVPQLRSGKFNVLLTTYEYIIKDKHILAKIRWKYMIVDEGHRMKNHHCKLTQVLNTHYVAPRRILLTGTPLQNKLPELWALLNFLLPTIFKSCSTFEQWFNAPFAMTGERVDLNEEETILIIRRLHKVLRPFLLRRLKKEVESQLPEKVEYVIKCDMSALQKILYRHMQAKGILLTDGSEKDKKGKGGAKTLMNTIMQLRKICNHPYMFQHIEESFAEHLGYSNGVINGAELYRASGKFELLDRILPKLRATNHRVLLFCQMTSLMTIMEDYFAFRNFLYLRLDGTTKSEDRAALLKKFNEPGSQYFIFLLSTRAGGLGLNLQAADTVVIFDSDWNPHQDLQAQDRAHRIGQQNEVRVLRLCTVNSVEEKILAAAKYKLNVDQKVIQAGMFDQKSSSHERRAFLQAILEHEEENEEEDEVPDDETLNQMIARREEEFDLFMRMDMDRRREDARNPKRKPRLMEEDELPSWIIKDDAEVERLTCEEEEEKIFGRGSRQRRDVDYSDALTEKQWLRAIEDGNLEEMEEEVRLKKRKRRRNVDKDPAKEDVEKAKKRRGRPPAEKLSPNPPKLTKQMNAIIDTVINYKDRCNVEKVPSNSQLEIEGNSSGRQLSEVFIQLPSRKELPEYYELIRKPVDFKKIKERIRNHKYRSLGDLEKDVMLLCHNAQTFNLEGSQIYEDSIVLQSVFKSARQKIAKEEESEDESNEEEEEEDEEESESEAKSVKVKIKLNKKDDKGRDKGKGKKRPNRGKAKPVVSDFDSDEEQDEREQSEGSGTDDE
readoutLabel: IC50

Fill in: IC50 of "O=C(Nc1cc(C(F)F)ns1)Nc1cc(F)ncc1CO" is ___ < 5 nM

The values you see were collected from ChEMBL document CHEMBL6153124.
